Values from paper PMC5896380

Molecular target: cathepsin B (Homo sapiens, UniProt P07858)
Construct: made in house
Assay: Substrate selectivity screening, rate of hydrolysis, cathepsin B
Type: biochemical
Details: Table S4; substrate 100µM, cathepsin 5nM; pH 5.5, 37 °C; average of at least three screenings
Non-standard residues stand in square brackets, D forms with d. *: point of attachment. Phe(3,4-Cl2) = N[C@@H](Cc1ccc(Cl)c(Cl)c1)C(=O)O; Phe(F5) = N[C@@H](Cc1c(F)c(F)c(F)c(F)c1F)C(=O)O; Phe(3,4-F2) = N[C@@H](Cc1ccc(F)c(F)c1)C(=O)O; Phe(4-F) = N[C@@H](Cc1ccc(F)cc1)C(=O)O; Phe(2-F) = N[C@@H](Cc1ccccc1F)C(=O)O; ACC = NC(=O)Cc1cc(=O)oc2cc(N*)ccc12; Met(O) = CS(=O)CC[C@H](N)C(=O)O; Tic = O=C(O)[C@@H]1Cc2ccccc2CN1; Orn = NCCC[C@H](N)C(=O)O
For each of the substances below, state its Relative substrate activity (rate of hydrolysis), cathepsin B.
Write down the numeric answer in RFU/s and omit the unit.

Look up Relative substrate activity (rate of hydrolysis), cathepsin B: Ac-[Met(O)][dR][Phe(2-F)]R-{ACC} (SMILES CC(=O)N[C@@H](CCS(C)=O)C(=O)N[C@H](CCCNC(=N)N)C(=O)N[C@@H](Cc1ccccc1F)C(=O)N[C@@H](CCCNC(=N)N)C(=O)Nc1ccc2c(CC(N)=O)cc(=O)oc2c1)
76.2

Thanks! And Ac-H[dL][Phe(3,4-Cl2)]R-{ACC} (SMILES CC(=O)N[C@@H](Cc1c[nH]cn1)C(=O)N[C@H](CC(C)C)C(=O)N[C@@H](Cc1ccc(Cl)c(Cl)c1)C(=O)N[C@@H](CCCNC(=N)N)C(=O)Nc1ccc2c(CC(N)=O)cc(=O)oc2c1) ?
65.1

Thanks! And Ac-[Tic][Orn][Phe(4-F)]L-{ACC} (SMILES CC(=O)N1Cc2ccccc2C[C@H]1C(=O)N[C@@H](CCCN)C(=O)N[C@@H](Cc1ccc(F)cc1)C(=O)N[C@@H](CC(C)C)C(=O)Nc1ccc2c(CC(N)=O)cc(=O)oc2c1) ?
15.0

Thanks! And Ac-H[dR][Phe(3,4-F2)]L-{ACC} (SMILES CC(=O)N[C@@H](Cc1c[nH]cn1)C(=O)N[C@H](CCCNC(=N)N)C(=O)N[C@@H](Cc1ccc(F)c(F)c1)C(=O)N[C@@H](CC(C)C)C(=O)Nc1ccc2c(CC(N)=O)cc(=O)oc2c1) ?
22.3

Thanks! And Ac-HRFR-{ACC} (SMILES CC(=O)N[C@@H](Cc1c[nH]cn1)C(=O)N[C@@H](CCCNC(=N)N)C(=O)N[C@@H](Cc1ccccc1)C(=O)N[C@@H](CCCNC(=N)N)C(=O)Nc1ccc2c(CC(N)=O)cc(=O)oc2c1) [reference compound] ?
272

Thanks! And Ac-H[dL][Phe(F5)][Orn]-{ACC} (SMILES CC(=O)N[C@@H](Cc1c[nH]cn1)C(=O)N[C@H](CC(C)C)C(=O)N[C@@H](Cc1c(F)c(F)c(F)c(F)c1F)C(=O)N[C@@H](CCCN)C(=O)Nc1ccc2c(CC(N)=O)cc(=O)oc2c1) ?
0.0

Thanks! And Ac-H[dV][Phe(F5)]R-{ACC} (SMILES CC(=O)N[C@@H](Cc1c[nH]cn1)C(=O)N[C@@H](C(=O)N[C@@H](Cc1c(F)c(F)c(F)c(F)c1F)C(=O)N[C@@H](CCCNC(=N)N)C(=O)Nc1ccc2c(CC(N)=O)cc(=O)oc2c1)C(C)C) ?
0.7
